For each entry below, report its Efficacy (%), P3X63 cytotoxicity, MOI 12 value.
- tested target: PcrV of P. aeruginosa strain PA103 (on TTSS-induced bacteria) (Pseudomonas aeruginosa strain PA103)
- experiment notes: cell-based or functional assay
Write it as a number; the unit % goes unstated.

What the record says about Nanobody 258 (13F07-40GS-14E10) (VHH) EVQLVESGGGLVQAGGSLRLSCAASGNTFSTNPMYWYRQAEGKQRELVASISSRGITNYADSVRGRFSISRDNTKDTVYLQMNSLKPEDTAVYYCRLASLSSGTVYWGKGTLVTVSSGGGGSGGGGSGGGGSGGGGSGGGGSGGGGSGGGGSGGGGSEVQLVESGGGLVQPGGSLRLSCAASGRIFSINTMGWYRQAPGKQRELVAGVTINAITNYADSVKGRFTISRDNAKNTVWLQMNSLKPEDTAVYYCHAWARSSGSAPYSQNWGQGTLVTVSS : Efficacy (%), P3X63 cytotoxicity, MOI 12 is 100

// Efficacy (%), P3X63 cytotoxicity, MOI 12 lookup, binder = Nanobody 269 (6B05-40GS-13F07) (VHH) EVQLVESGGGLVQPGGSLRLSCAASGSIFSINTMGWYRQAPGKQRELVSTITSNLVPHYADSVQGRFTISRDNARNTVYLQMNSLKPQDTAHYYCNAWARSSGATPYTNYWGQGTLVTVSSGGGGSGGGGSGGGGSGGGGSGGGGSGGGGSGGGGSGGGGSEVQLVESGGGLVQAGGSLRLSCAASGNTFSTNPMYWYRQAEGKQRELVASISSRGITNYADSVRGRFSISRDNTKDTVYLQMNSLKPEDTAVYYCRLASLSSGTVYWGKGTLVTVSS , result: 100

Nanobody 283 (7E09-40GS-6B05) (VHH) EVQLVESGGGLVQAGGSLRLSCAASGRTFSSYIMGWFRQAPGKAREFVADITWGQRPYYADSVKGRFTISRDNAKNTVYLEMNSLKPEDTAVYYCAADLGVVIREEHAYWGQGTLVTVSSGGGGSGGGGSGGGGSGGGGSGGGGSGGGGSGGGGSGGGGSEVQLVESGGGLVQPGGSLRLSCAASGSIFSINTMGWYRQAPGKQRELVSTITSNLVPHYADSVQGRFTISRDNARNTVYLQMNSLKPQDTAHYYCNAWARSSGATPYTNYWGQGTLVTVSS yielded Efficacy (%), P3X63 cytotoxicity, MOI 12 of 100

The origin of these recorded values is patent US20190055322A1.
